Would you mind telling me the reported pIC50 of each entry?
Biological target: EGFR(L858R_T790M_C797S) (aa695-end, Invitrogen) (Homo sapiens, UniProt P00533, C797S/L858R/T790M)
Sequence (P00533 695-1210 T790M/C797S/L858R): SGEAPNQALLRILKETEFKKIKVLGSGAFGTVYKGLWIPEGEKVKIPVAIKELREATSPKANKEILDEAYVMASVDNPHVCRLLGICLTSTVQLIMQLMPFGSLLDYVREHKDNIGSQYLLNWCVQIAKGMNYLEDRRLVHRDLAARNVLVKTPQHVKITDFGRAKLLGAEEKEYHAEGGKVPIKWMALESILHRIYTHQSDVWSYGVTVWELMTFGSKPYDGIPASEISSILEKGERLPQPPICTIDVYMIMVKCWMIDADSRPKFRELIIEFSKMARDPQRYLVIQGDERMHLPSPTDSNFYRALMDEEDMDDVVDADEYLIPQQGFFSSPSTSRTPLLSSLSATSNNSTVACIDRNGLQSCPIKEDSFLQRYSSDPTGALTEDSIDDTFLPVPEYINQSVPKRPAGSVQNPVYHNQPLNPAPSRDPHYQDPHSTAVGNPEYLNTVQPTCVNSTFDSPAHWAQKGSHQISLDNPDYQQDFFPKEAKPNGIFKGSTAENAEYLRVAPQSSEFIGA
Assay: Biochemical EGFR inhibition assay (TR-FRET), L858R/T790M/C797S mutant
Conditions: ATP at Km, 15 min pre-incubation, 60 min reaction; read-out: LR_TM_CS (Km ATP) IC50
Give bare numbers, as −log10 of the molar value.

Worked examples follow.
{"columns": ["SMILES", "pIC50"],
 "data": [
  ["COc1cc(N2CCC(N3CCN(C)CC3=O)CC2)ccc1Nc1nc(Nc2cccc3c2N(S(C)(=O)=O)CC3)c2cc[nH]c2n1", 9.22],
  ["COc1cc(N2CCC(N3CCN(C)CC3)CC2)c(C)cc1Nc1ncc(Br)c(Nc2cccc3c2N(S(C)(=O)=O)CC3)n1", 9.68],
  ["COc1cc(N2CCC(N3CCN(C)CC3)CC2)ccc1Nc1nc(Nc2cccc3c2N(S(C)(=O)=O)CC3)c2c(Cl)c[nH]c2n1", 9.21],
  ["CCN1CCN(C2CCN(c3ccc(Nc4nc(Nc5ccc(F)c6c5N(S(C)(=O)=O)CC65CCC5)c5cc[nH]c5n4)cc3F)CC2)CC1", 7.38],
  ["COc1cc(N2CCC(N3CCN(C)CC3)CC2)c(C)cc1Nc1ncc(Cl)c(Nc2cccc3c2N(S(C)(=O)=O)CC3)n1", 9.55],
  ["COc1cc(N2CCC3(CC2)CN(C)C3)c(C)cc1Nc1nc(Nc2cccc3c2N(S(C)(=O)=O)CC3)c2cc[nH]c2n1", 9.04]
]}

I have 2 compounds here; please give me pIC50 for each one.
1. COc1cc(N2CCC(N3CCN(C)CC3)CC2)ccc1Nc1ncc(Cl)c(Nc2cccc3c2N(S(=O)(=O)N(C)C)CC3)n1
2. CCCS(=O)(=O)N1CCc2cccc(Nc3nc(Nc4ccc(N5CCC(N6CCN(C)CC6)CC5)cc4OC)ncc3Cl)c21

1: 8.89; 2: 8.74

Provide reported pIC50 for each item, in the same order as listed.
1. COc1cc(N2CCC(N3CCN(C)CC3)CC2)ccc1Nc1ncc(Cl)c(Nc2cccc3c2N(S(C)(=O)=O)CC32CC2)n1
2. CCc1cc(Nc2ncc(Cl)c(Nc3cccc4c3N(S(C)(=O)=O)CC4)n2)c(OC)cc1N1CCC(N2CCN(C)CC2)CC1
3. CCOc1cc(N2CCC(N3CCN(C)CC3)CC2)c(C)cc1Nc1nc(Nc2cccc3c2N(S(C)(=O)=O)CC3)c2cc[nH]c2n1
4. COc1cc(N2CCC(N3CCN(C)C4(CC4)C3)CC2)ccc1Nc1nc(Nc2cccc3c2N(S(C)(=O)=O)CC3)c2cc[nH]c2n1

[9.52, 9.17, 8.82, 9.05]
